Listed below: pest or weed control at 20 g/ha values for each entry.
# System: VIOTR
# Measurement notes: Pre-emergence herbicidal action against VIOTR
# Format: in vivo, Viola tricolor
# Measurement conditions: Viola tricolor, 504 h, dosage 20 g/ha
Write it as a number; the unit % goes unstated.

Sample records with pest or weed control at 20 g/ha:
CCNC(=O)c1c(C(F)F)ccc(C(=O)Nc2nnnn2C)c1Br 80
CCCNC(=O)c1c(C(F)F)ccc(C(=O)Nc2nnnn2CC)c1C 80
CCn1nnnc1NC(=O)c1ccc(C(F)(F)F)c(C(=O)NC(C)=O)c1Cl 90
CC(C)NC(=O)c1c(C(F)(F)F)ccc(C(=O)Nc2nnnn2C)c1Cl 90
Cn1nnnc1NC(=O)c1ccc(C(F)(F)F)c(C(=O)NC2CC2)c1Cl 100

Entry COc1c(C(=O)Nc2nnnn2C)ccc(C(F)(F)F)c1C(=O)NC1CC1 has what pest or weed control at 20 g/ha?
100

Entry CNC(=O)c1c(C(F)(F)F)ccc(C(=O)Nc2nnnn2C)c1OC has what pest or weed control at 20 g/ha?
100

Entry CCc1c(C(=O)Nc2nnnn2CC)ccc(C(F)F)c1C(=O)NC1CC1 has what pest or weed control at 20 g/ha?
100

Entry CCNC(=O)c1c(C(F)(F)F)ccc(C(=O)Nc2nnnn2C)c1C has what pest or weed control at 20 g/ha?
90
